Each recorded value in this set is attributed to patent US4895589A.

- System: Vines
- condition_notes: VN, 4000 ppm, 2-3 weeks
Reported Retardation score (1-3) with greening (G), apical damage (A), tillering/side shooting (T) by item:
quantity_kind: Retardation score (1-3) with greening (G), apical damage (A), tillering/side shooting (T)

CCCCCC#CC(O)(Cn1cncn1)C(C)(C)C (stereo not shown) [Compound 3]
2GAT
CC(C)(C)C#CC(O)(Cn1cncn1)C(C)(C)C (stereo not shown) [Compound 5]
1GT
CC(C)CCC#CC(O)(Cn1cncn1)C(C)(C)C (stereo not shown) [Compound 8]
1 (10-30% retardation)
CCCCC#CC(O)(Cn1cncn1)C(C)(C)C (stereo not shown) [Compound 1]
1GT
CCCC(C)C#CC(O)(Cn1cncn1)C(C)(C)C (stereo not shown) [Compound 9]
2GT
CCCCCCC#CC(O)(Cn1cncn1)C(C)(C)C (stereo not shown) [Compound 4]
1G
CCC(C)C#CC(O)(Cn1cncn1)C(C)(C)C (stereo not shown) [Compound 6]
2GT

---

- Tested on: Soya
- condition_notes: SY, 4000 ppm, 2-3 weeks
quantity_kind: Retardation score (1-3) with greening (G), apical damage (A), tillering/side shooting (T)

CCCCC#CC(O)(Cn1cncn1)C(C)(C)C (stereo not shown)
1
CC(C)(C)C#CC(O)(Cn1cncn1)C(C)(C)C (stereo not shown)
2
CC(C)CCC#CC(O)(Cn1cncn1)C(C)(C)C (stereo not shown)
3
CCCCCCC#CC(O)(Cn1cncn1)C(C)(C)C (stereo not shown)
1

---

Reported Retardation score (1-3) with greening (G), apical damage (A), tillering/side shooting (T) by item:
- Test system: Lettuce
- condition_notes: LT, 4000 ppm, 2-3 weeks
quantity_kind: Retardation score (1-3) with greening (G), apical damage (A), tillering/side shooting (T)

CC(C)CCC#CC(O)(Cn1cncn1)C(C)(C)C (stereo not shown)
1
CC(C)CC#CC(O)(Cn1cncn1)C(C)(C)C (stereo not shown)
1
CCC(C)C#CC(O)(Cn1cncn1)C(C)(C)C (stereo not shown)
1

---

- Test system: Agrostis tenius
- condition_notes: AT, 4000 ppm, 2-3 weeks
quantity_kind: Retardation score (1-3) with greening (G), apical damage (A), tillering/side shooting (T)

CCCCC#CC(O)(Cn1cncn1)C(C)(C)C (centres unmarked)
3
CC(C)CC#CC(O)(Cn1cncn1)C(C)(C)C (centres unmarked)
2
CC(C)CCC#CC(O)(Cn1cncn1)C(C)(C)C (centres unmarked)
1
CCCCCC#CC(O)(Cn1cncn1)C(C)(C)C (centres unmarked)
2

---

- Test system: Spring Barley
- protocol_text: Intermediate Retardant Test, spring barley
- Format: in vivo, Spring Barley (Atem/kym)
- condition_notes: Hordeum vulgare, 672 h, 1000 ppm, ~28 days, side-by-side, Table XV; read-out: Percentage Reduction in Height of Spring Barley (Compared to formulation blank)
Flag rule - height reduction vs blank at 1000 ppm less than 9% flags condition met; the remaining entries get condition not met.

CC(C)(C)C(O)(C#Cc1ccc(Cl)cc1)Cn1cncn1 (stereo not shown) [C, reference compound]
condition met
CC(C)(C)C(O)(C=Cc1ccc(Cl)cc1)Cn1cncn1 (stereo not shown) [B, reference compound]
condition met
CC(C)CC#CC(O)(Cn1cncn1)C(C)(C)C (stereo not shown)
condition not met
CCCCC#CC(O)(Cn1cncn1)C(C)(C)C (stereo not shown)
condition not met
CC(C)(C)C=CC(O)(Cn1cncn1)C(C)(C)C (stereo not shown) [A, reference compound]
condition met

---

- Tested on: Barley
- protocol_text: Whole Plant Screen (2), barley
- Format: in vivo, Barley (Atem)
- condition_notes: BR, 4000 ppm, 2-6 weeks, Table V
quantity_kind: I = Interligular or internodal length reduction

CCCCCC#CC(O)(Cn1cncn1)C(C)(C)CF (stereo not shown)
1 (10-30%)
CC(C)(C)C(O)(C#CCCCCl)Cn1cncn1 (stereo not shown)
2 (31-60%)
CCCCC#CC(O)(Cn1cncn1)C(C)(C)CF (stereo not shown)
2 (31-60%)
CC(C)(C)C(O)(C#CCC1CC1)Cn1cncn1 (stereo not shown)
3 (61-100%)

---

- Test system: Rice
- protocol_text: Whole Plant Screen (2), rice
- Assay type: in vivo, Rice (Ishikari)
- condition_notes: RC, 4000 ppm, side-by-side, Table XIII
Reported T = Tillering or side shooting by item:
quantity_kind: T = Tillering or side shooting

CC(C)(C)C#CC(O)(Cn1cncn1)C(C)(C)C (stereo not shown)
2 (31-60%)
CCCCC#CC(O)(Cn1cncn1)C(C)(C)C (stereo not shown)
3 (61-100%)
CC(C)(C)C=CC(O)(Cn1cncn1)C(C)(C)C (stereo not shown) [A, reference compound]
2 (31-60%)
CC(C)CC#CC(O)(Cn1cncn1)C(C)(C)C (stereo not shown)
3 (61-100%)

---

- Tested on: Apples
- protocol_text: Intermediate Retardant Test, apples
- Type: in vivo, Apples (Red Delicious)
- condition_notes: 672 h, 4000 ppm, ~28 days, side-by-side, Table XVII; read-out: Percentage Reduction in Height of Apples (Compared to formulation blank)
Reported percent reduction in plant height vs formulation blank at 4000 ppm by item:
quantity_kind: percent reduction in plant height vs formulation blank at 4000 ppm (%)

CC(C)(C)C#CC(O)(Cn1cncn1)C(C)(C)C (stereo not shown)
24
CC(C)(C)C(O)(C=Cc1ccc(Cl)cc1)Cn1cncn1 (stereo not shown) [B, reference compound]
3
CC(C)CC#CC(O)(Cn1cncn1)C(C)(C)C (stereo not shown)
60
CCCCC#CC(O)(Cn1cncn1)C(C)(C)C (stereo not shown)
41
COC(C)(C)C#CC(O)(Cn1cncn1)C(C)(C)C (stereo not shown) [D, reference compound]
0
CC(C)(C)C=CC(O)(Cn1cncn1)C(C)(C)C (stereo not shown) [A, reference compound]
14
CC(C)(C)C(O)(C#Cc1ccc(Cl)cc1)Cn1cncn1 (stereo not shown) [C, reference compound]
0

---

- protocol_text: Solubility in water
- Format: physicochemical
quantity_kind: solubility (µg/mL)

CCCCC#CC(O)(Cn1cncn1)C(C)(C)C (stereo not shown)
1900

---

Reported Retardation score (1-3) with greening (G), apical damage (A), tillering/side shooting (T) by item:
- System: Soya
- condition_notes: SY, 4000 ppm, 2-3 weeks
quantity_kind: Retardation score (1-3) with greening (G), apical damage (A), tillering/side shooting (T) (GA)

CCC(C)C#CC(O)(Cn1cncn1)C(C)(C)C (stereo not drawn)
2
CCC(C)CC#CC(O)(Cn1cncn1)C(C)(C)C (stereo not drawn)
2
CCCCCC#CC(O)(Cn1cncn1)C(C)(C)C (stereo not drawn)
3

---

Reported Retardation score (1-3) with greening (G), apical damage (A), tillering/side shooting (T) by item:
- Test system: Lettuce
- condition_notes: LT, 4000 ppm, 2-3 weeks
quantity_kind: Retardation score (1-3) with greening (G), apical damage (A), tillering/side shooting (T)

CCCCCCC#CC(O)(Cn1cncn1)C(C)(C)C (stereo not shown)
2 (21-60% retardation)
CCCCC#CC(Cn1cncn1)(OC)C(C)(C)C (stereo not shown)
1 (10-30% retardation)
CC(C)(C)C#CC(O)(Cn1cncn1)C(C)(C)C (stereo not shown)
1 (10-30% retardation)
CCCC(C)C#CC(O)(Cn1cncn1)C(C)(C)C (stereo not shown)
1 (10-30% retardation)

---

- System: Soya
- condition_notes: SY, 4000 ppm, 2-3 weeks
quantity_kind: Retardation score (1-3) with greening (G), apical damage (A), tillering/side shooting (T)

CCCCC#CC(Cn1cncn1)(OC)C(C)(C)C (stereo not drawn)
3GT
CC(C)CC#CC(O)(Cn1cncn1)C(C)(C)C (stereo not drawn)
3GAT
CCCC(C)C#CC(O)(Cn1cncn1)C(C)(C)C (stereo not drawn)
2GAT
